# MEASUREMENT NOTES: 24 hours prior to assay, media containing 5 mM sodium butyrate were added to MDCKII cells in flasks, and cells were grown to 80-90% confluence. On assay day, cells were trypsinized and resuspended in Krebs-Henseleit Buffer (KHB), pH 7.4 at 5×10^6 […] cells/mL. Cells were preincubated for 15 min in assay plate before addition of test compound or substrate.Test compounds were serially diluted in DMSO and then spiked (2 μL) into in 0.4 mL KHB buffer containing wild-type or OCT2-transfected cells and incubated for 10 minutes. Assay was initiated with the addition of 0.1 mL of 100 μM 14C-TEA in KHB buffer (20 μM final concentration after mixing). The concentration of TEA is based on the Km. After 10 minutes of incubation, the assay mixture was quenched with addition of 0.5 mL of ice-cold 1×PBS buffer. Samples were then centrifuged at 1000 rpm for 5 min and supernatants were removed. Wash steps were repeated four times with ice-cold PBS. Finally, the cell pellets were lysed with 0.2N NaOH and let sit at room temperature for at least 30 min to ensure complete lysis.
# CONDITION SET: MDCK-II
ASSAY ENDPOINT: pIC50
Scale for pIC50: -log10 of concentration given in mol/L; no unit attached.

In the examples that follow, each entry is paired with its recorded pIC50.
> print(dat)
                                   compound  assay.result
1  O=C(NCc1cc(F)ccc1F)c1cn2c(cc1=O)C(=O)N1C3CCC(C3)C1C2 (stereo not drawn)          6.35
2  O=C(NCc1c(F)cc(F)cc1F)c1cn2c(c(O)c1=O)C(=O)N1C3CCC(C3)O[C@H]1C2 (stereo partly drawn)          6.86

Q. Fill in: pIC50 of C[C@@H](NC(=O)c1cn2c(c(O)c1=O)C(=O)N1C(C2)O[C@@H]2CC[C@@H]1C2)c1ccc(F)cc1F (stereo partly drawn) is ___
A. 6.21
